// provenance: patent EP2719696A1

molecular target: cKIT (Homo sapiens); assay: Kinase inhibition assay (ELISA); assay type: biochemical; settings: 60 µM ATP
Sequence (P10721 26-976): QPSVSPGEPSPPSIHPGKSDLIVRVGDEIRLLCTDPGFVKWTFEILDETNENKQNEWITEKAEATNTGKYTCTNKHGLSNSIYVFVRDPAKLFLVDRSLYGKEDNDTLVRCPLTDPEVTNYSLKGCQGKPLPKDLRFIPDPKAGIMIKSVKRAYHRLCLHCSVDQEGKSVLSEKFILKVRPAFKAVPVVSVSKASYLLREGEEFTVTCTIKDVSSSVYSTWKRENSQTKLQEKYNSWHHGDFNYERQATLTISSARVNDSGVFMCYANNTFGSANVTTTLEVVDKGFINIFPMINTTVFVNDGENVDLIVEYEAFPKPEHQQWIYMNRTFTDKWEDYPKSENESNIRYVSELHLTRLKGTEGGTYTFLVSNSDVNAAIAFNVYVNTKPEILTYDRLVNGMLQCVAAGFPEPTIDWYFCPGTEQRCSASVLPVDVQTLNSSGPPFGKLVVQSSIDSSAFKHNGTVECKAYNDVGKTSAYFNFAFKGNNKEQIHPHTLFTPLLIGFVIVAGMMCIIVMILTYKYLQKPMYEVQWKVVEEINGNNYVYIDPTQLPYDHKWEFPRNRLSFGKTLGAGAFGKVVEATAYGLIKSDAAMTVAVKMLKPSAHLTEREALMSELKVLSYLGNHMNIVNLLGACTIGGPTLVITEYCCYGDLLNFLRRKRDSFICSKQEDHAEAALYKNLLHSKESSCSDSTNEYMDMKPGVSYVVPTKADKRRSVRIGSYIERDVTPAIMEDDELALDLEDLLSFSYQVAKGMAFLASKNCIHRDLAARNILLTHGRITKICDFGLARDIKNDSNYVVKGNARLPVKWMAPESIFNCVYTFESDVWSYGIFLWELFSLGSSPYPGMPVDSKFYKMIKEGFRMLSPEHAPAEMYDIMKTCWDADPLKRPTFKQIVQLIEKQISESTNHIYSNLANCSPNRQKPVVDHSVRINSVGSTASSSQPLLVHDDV
IC50 values for the compounds below.

OCCN1CCC(c2ccnc(Nc3ncc(/C=C/c4ccccc4)s3)c2)CC1 : > 1000 nM
Fc1ccc(-c2cnc(Nc3cccc(CC4CNCCOC4)n3)s2)cc1 (stereo not drawn) : > 10 nM
OCC(O)CN1CCC(c2ccnc(Nc3ncc(-c4ccc(F)cc4)s3)c2)CC1 (stereo not drawn) : < 10 nM

Return IC50 (reported value) for this compound: Fc1ccc(-c2cnc(Nc3cccc(CC4CCCNCC4)n3)s2)cc1 (stereo not drawn)
> 10 nM

Return IC50 (reported value) for this compound: `OCCN1CCC(c2ccnc(Nc3ncc(-c4ccc(F)c(F)c4)s3)c2)CC1`
> 10 nM

Return IC50 (reported value) for this compound: Fc1ccc(-c2cnc(Nc3cccc(CC4CCC5CNCC54)n3)s2)cc1 (stereo not drawn)
< 10 nM

Return IC50 (reported value) for this compound: c1ccc(-c2cnc(Nc3cc(C4CCCN4)ccn3)s2)cc1 (stereo not drawn)
> 10 nM

Return IC50 (reported value) for this compound: CC(=O)N1CCCC(Cc2cccc(Nc3ncc(-c4ccc(F)cc4)s3)n2)CC1 (stereo not drawn)
> 10 nM

Return IC50 (reported value) for this compound: `CC(C)(C)OC(=O)N1CCC(c2cccc(Nc3ncc(C#CC4CC4)s3)n2)CC1`
> 10000 nM
